- System: RPMI-8226 leukemia
- Protocol Text: NCI tumour cell line growth inhibition, 48 h
Metric Name: TGI (µM)
Numbers only here, please. The scale is µM.

Value of measured TGI for the entry Cc1ccc(NC(=S)C#N)cc1Cl : 56.2

molecule C[C@]12CC[C@@H]3c4ccc(O)cc4CC[C@H]3[C@@H]1CC[C@@H]2OC(=O)CCC1CCCC1 , TGI observed: 38.3

// TGI value for Cc1cc(I)cc(CN(C)CCN(C)C)c1O : 51.6

* * *

- System: PC-3 prostate
- Protocol Text: NCI tumour cell line growth inhibition, 48 h
Metric Name: TGI

Here's what some known entries look like.
Molecule	Value Reported
CC(C)(Oc1ccc(Cl)cc1)C(=O)NC1C2CC3CC1CC(NS(C)(=O)=O)(C3)C2 (stereo not given)	> 100 µM
Cc1ccc2c(=O)cc(-c3cccc(Cl)c3)[nH]c2n1	> 100 µM
OCCCNCC(O)c1ccc(OCc2ccccc2)c(OCc2ccccc2)c1 (stereo not given)	25.4 µM

Now look at this entry.
So, CCN(CC)CCn1c(N)c(-c2nc3ccccc3n2C)c2nc(C#N)c(C#N)nc21 ? Its TGI was > 19.5 µM

* * *

Measured TGI of individual entries
- System: SK-MEL-28 melanoma
- Protocol Text: NCI tumour cell line growth inhibition, 48 h

Solved cases below.
> print(dat)
                                   molecule  metric.name  value.reported
1  O=C(C(Br)C(Br)c1ccccc1)C(Br)C(Br)c1ccccc1 (stereo unspecified)          TGI         3.36 µM
2  CC(=O)NC(C)(C)C1CC=C(C)/C(=N\O)C1 (stereo unspecified)          TGI        > 100 µM
3  CCCCN(CCCC)CC(O)c1ccc(OCc2ccccc2)c2ccccc12 (stereo unspecified)          TGI         18.8 µM

Measured TGI (SK-MEL-28 melanoma), entry CN=c1oc2ccccc2cc1C(N)=O : > 100 µM

Lab entry: SK-MEL-28 melanoma assay, molecule CCSc1ccc2c(c1)N(CCCN1CCN(C)CC1)c1ccccc1S2 , TGI = 3.27 µM

Form: item N=C1N(c2ccccc2)C(=S)C(=Nc2ccccc2)N1c1ccccc1 ; test system SK-MEL-28 melanoma; TGI: 31.7 µM

* * *

# reported GI50; entries follow
- System: NCI/ADR-RES ovarian
- Protocol Text: NCI tumour cell line growth inhibition, 48 h

> print(dat)
                            chemical.smiles  value.reported
1  CCN(CC)CCn1c(N)c(-c2nc3ccccc3n2C)c2nc(C#N)c(C#N)nc21          3.1 µM
2  C=C1C(=O)O[C@H]2[C@H]1CC/C(COC(=O)NCc1[nH]nc3ccccc13)=C\CC[C@@]1(C)O[C@@H]21         6.22 µM
3   N#Cc1c(-c2ccccc2)n([O-])c2ccccc2[n+]1=O         21.1 µM

Kindly note the recorded GI50 for CCCCC/C=C/C(=O)CCc1ccc(O)c(OC)c1 , which is 7.49 µM

Summary for this molecule, COC(=O)c1c2c(c(C)[n+]([O-])c1C)C(=O)C(NCc1cccc(Cl)c1)=CC2=O : GI50 is 1.64 µM

Per the records, this molecule ( COc1ccc(/C=N/Nc2nc(N)nc(N3CCCC3)c2C#N)cc1 ) has GI50 equal to 14.1 µM

GI50 reading for COc1ccc(-c2cc3c(OC)c(OC)c(OC)cc3oc2=O)cc1 : 2.02 µM

Note to self: GI50 recorded for CCSc1ccc2c(c1)N(CCCN1CCN(C)CC1)c1ccccc1S2 was 3.68 µM
